Listing of recorded inhibition by entry.
target: Pantothenate synthetase (Mycobacterium tuberculosis (strain ATCC 25618 / H37Rv)) (UniProt P9WIL5); experiment: Coupled enzyme confirmation of inhibitors against recombinant Mtb PanC (AID 375); details: coupled enzyme assay; at 10 µM, hits give high values;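 further: 0% = full reaction with vehicle and 100% = no enzyme background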
Sequence (P9WIL5 whole entry, looked up): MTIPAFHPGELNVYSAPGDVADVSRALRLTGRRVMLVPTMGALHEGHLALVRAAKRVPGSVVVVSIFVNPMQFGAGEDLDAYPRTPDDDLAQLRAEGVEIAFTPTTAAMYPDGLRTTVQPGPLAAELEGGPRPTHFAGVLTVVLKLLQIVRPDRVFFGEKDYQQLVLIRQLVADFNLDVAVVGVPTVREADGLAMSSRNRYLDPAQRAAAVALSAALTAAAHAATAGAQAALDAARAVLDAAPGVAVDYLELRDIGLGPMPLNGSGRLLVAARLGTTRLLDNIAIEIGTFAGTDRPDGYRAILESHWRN

{"COMPOUND": "COc1cccc(NC(=O)C2CCCN2C(=O)Nc2cccc(F)c2)c1 (centres undefined)", "inhibition [%]": 0}
{"COMPOUND": "CCC1(CC)C(=O)N(C)C(=O)NC1=NCc1ccccc1", "inhibition [%]": 0}
{"COMPOUND": "Cn1cnc2c1c(=O)n(Cc1cccc(Br)c1)c(=O)n2C", "inhibition [%]": 1}
{"COMPOUND": "O=C(c1ccc(-c2cccc(C(F)(F)F)c2)o1)N1CCOCC1", "inhibition [%]": 0}
{"COMPOUND": "Cc1c(C(=O)OC2CCC(C)CC2)[nH]c2c1C(=O)CCC2 (centres undefined)", "inhibition [%]": 2}
{"COMPOUND": "NC(=O)CSc1nnc(-c2cc3ccccc3o2)n1Cc1ccccc1", "inhibition [%]": 0}
{"COMPOUND": "CCOC(=O)c1sc2nc(NC(=O)C(C)(C)C)sc2c1C", "inhibition [%]": 8}
{"COMPOUND": "Cc1ccc(S(=O)(=O)NC(C(=O)OCC(=O)NC2CCS(=O)(=O)C2)C(C)C)cc1 (centres undefined)", "inhibition [%]": 0}
{"COMPOUND": "O=C(CSc1oc(-c2ccco2)nc1S(=O)(=O)c1ccccc1)NCC1CCCO1 (centres undefined)", "inhibition [%]": 0}
{"COMPOUND": "COC(=O)c1cn(NC(=O)C2CCCO2)c(=O)c2ccccc12 (centres undefined)", "inhibition [%]": 0}
{"COMPOUND": "CCOC(=O)C(NC(=O)c1ccc(OC)cc1)(N1CCOCC1)C(F)(F)F (centres undefined)", "inhibition [%]": 2}
{"COMPOUND": "CCOC(=O)C1=C(C)NC(C)=C(C(=O)OCC)C1c1cc(N)ccc1OC(F)F", "inhibition [%]": 0}
{"COMPOUND": "Cc1nc2ccc(Br)cn2c1NC(C)(C)C", "inhibition [%]": 0}
{"COMPOUND": "O=C1C(Cl)=C(N2CCCCC2)C(=O)N1c1ccccc1Cl", "inhibition [%]": 7}
{"COMPOUND": "OCCNCCCCOc1ccccc1F", "inhibition [%]": 0}
{"COMPOUND": "Cc1cc(NC(=O)CCC(=O)N(CC(=O)NC2CCCC2)Cc2ccc(F)cc2)no1", "inhibition [%]": 0}
{"COMPOUND": "Cc1ccc(-c2nnc(-c3cccc(Br)c3)o2)cc1", "inhibition [%]": 0}
{"COMPOUND": "COc1ccc(Cn2nnnc2C(c2ccccn2)N2CCN(c3cc(Cl)ccc3C)CC2)cc1 (centres undefined)", "inhibition [%]": 0}
{"COMPOUND": "COc1ccc(Br)cc1S(=O)(=O)N1CCOCC1", "inhibition [%]": 0}
